// provenance: patent US20100210649A1

Give inhibition at 10 µM for every item shown.
tested on: H2030; experiment: Non Small Cell Lung Cancer proliferation assay (Alamar Blue reduction), H2030; format: cell-based, human; settings: Homo sapiens, NCI-H2030; primary screening; 10 μM compound in 1% DMSO (v/v); read-out: percentage inhibition H2030
Answers are plain numbers, in %.

Example results:
COMPOUND | SCALE_UNIT | inhibition at 10 µM
Cc1ccccc1-n1nc(C(=O)c2cccs2)cc(-c2nc3ccccc3[nH]2)c1=N | % | 4
COc1ccc(-n2nc(-n3cnc4ccccc43)c(C)c(C#N)c2=O)cc1 | % | 4
CCOC(=O)NCCOc1cnn(-c2ccc(Cl)cc2)c(=O)c1Cl | % | -9
CSc1cnn(-c2ccccc2)c(=O)c1SC | % | -3
Cc1cc(N(C)C)c(=O)n(-c2ccccc2)n1 | % | -4

State recorded inhibition at 10 µM for all listed compounds.
1. Cc1cccc(-n2nc(C(=O)c3ccco3)cc(-c3nc4ccccc4[nH]3)c2=N)c1
2. O=c1c(SCc2ccccc2)c(SCc2ccc(Cl)cc2)cnn1-c1ccccc1

Resp:
[-5, 10]

----------
tested on: H1650; experiment: Non Small Cell Lung Cancer proliferation assay (Alamar Blue reduction), H1650; assay type: cell-based, human; conditions: Homo sapiens, NCI-H1650; primary screening; 10 μM compound in 1% DMSO (v/v); read-out: percentage inhibition H1650
ASSAY_METRIC: inhibition at 10 µM (%)
Numbers only, in %.

The examples below pair each entry with its known result.
COMPOUND | ASSAY_METRIC | ENDPOINT_VALUE
Cc1ccc(C(C)C)c(OCC(=O)Oc2ccc(=O)n(-c3ccccc3)n2)c1 | inhibition at 10 µM | -16
Cc1ccc(C)c(Sc2cnn(-c3ccccc3)c(=O)c2Cl)c1 | inhibition at 10 µM | 15
O=c1c(SCc2ccc(Cl)cc2Cl)c(SCc2ccc(Cl)cc2Cl)cnn1-c1ccccc1 | inhibition at 10 µM | -4
CSc1c(SCc2ccccc2)cnn(-c2ccccc2)c1=O | inhibition at 10 µM | -4

List the reported inhibition at 10 µM of each compound below.
1. COC(=O)NCCOc1cnn(-c2ccccc2)c(=O)c1
2. O=c1ccc(Oc2nc(N3CCCCC3)nc(N3CCCCC3)n2)nn1-c1ccccc1
3. O=c1c(SCc2ccc(Cl)cc2Cl)c(SC2CCCCO2)cnn1-c1ccccc1 (centres unmarked)
4. O=c1c(SCc2ccc(Cl)cc2)c(SCc2ccccc2)cnn1-c1ccccc1

Resp:
2
3
-12
-10

----------
What IC50 was measured for each of the following?
tested on: H3255; assay: Non Small Cell Lung Cancer proliferation assay (Alamar Blue reduction), H3255; type: cell-based, human; details: Homo sapiens, NCI-H3255, 48 h, H3255; 12 point doubling dilution 10 uM to 5 nM; 48 h treatment, alamar blue additional 48 h; read-out: IC50 H3255
One number for each entry, in nM.

Worked cases, IC50 given:
SMILES_DATA | SCALE_UNIT | IC50
O=c1c(Cl)c(Cl)cnn1-c1ccccc1 | nM | 1500
O=c1c(Cl)c(Cl)cnn1-c1ccccn1 | nM | 700
O=c1c(Br)c(Br)cnn1-c1ccccc1 | nM | 760
NCCCOc1cccc(-n2ncc(Br)c(Br)c2=O)c1 | nM | 990
Cc1cccc(-n2ncc(Br)c(Br)c2=O)c1 | nM | 760

Respectfully, I request IC50 for each entry included below.
1. COc1cccc(-n2ncc(Br)c(Br)c2=O)c1
2. Cc1cccc(-n2ncc(Cl)c(Cl)c2=O)c1C

Resp:
1: 650; 2: 1860

I would be grateful if you could provide IC50 for each of the following entries.
1. O=c1c(Cl)c(Cl)cnn1-c1ccc(C(F)(F)F)cc1
2. O=c1c(Cl)c(Cl)cnn1-c1ccc2c(c1)CCC2

Resp:
2290
4610

----------
tested on: A549; experiment: Dose response study (Alamar Blue), A549; type: cell-based; settings: Homo sapiens, A549, 48 h, read-out: IC50 A549
ASSAY_METRIC: IC50 (nM)
One number for each entry, in nM.

The examples below pair each entry with its known result.
SMILES_DATA | EXPERIMENTAL_TARGET | IC50, nM
O=c1c(Cl)c(Cl)cnn1-c1ccccc1 | A549 | 1680
O=C(Nc1ccc(Cl)cc1)c1ccc([N+](=O)[O-])o1 | A549 | 1330
Cc1ccc(NC(=O)c2ccc([N+](=O)[O-])o2)cc1 | A549 | 1810

From here, focus on the item given below.
Req: # query: IC50 of entry `Cc1cccc(-n2ncc(Cl)c(Cl)c2=O)c1`
Resp: 1450

----------
Consider the following compounds; for each one, report its IC50.
system: H2030; assay: Non Small Cell Lung Cancer proliferation assay (Alamar Blue reduction), H2030; type: cell-based, human; details: Homo sapiens, NCI-H2030, dose response 10 M to 5 nM; IC50; read-out: Dose Response (uM) H2030
Numbers only, in µM.

Solved cases (4 shown):
SMILES_DATA | SCALE_UNIT | ENDPOINT_VALUE
COc1cccc(-n2ncc(Cl)c(Cl)c2=O)c1 | µM | 0.72
Cc1cc(C)cc(-n2ncc(Cl)c(Cl)c2=O)c1 | µM | 0.56
O=c1c(Cl)c(Cl)cnn1-c1ccc2c(c1)CCC2 | µM | 1.41
Cc1cccc(-n2ncc(Br)c(Br)c2=O)c1 | µM | 1.22

# ---- query compound ----
Req: Query (compound): `Cc1ccc(-n2ncc(Cl)c(Cl)c2=O)cc1Cl` ; field requested: IC50
Resp: 5.18

----------
System: H460
Assay: Dose response study (Alamar Blue), H460
Assay type: cell-based
Settings: Homo sapiens, NCI-H460; H460; 12 point doubling dilution 10 uM to 5 nM; 48 h treatment, alamar blue additional 48 h; read-out: IC50 H460
Experimental: Dose response studies against 34 compounds from the pyridazinone and phenylfuran-carboxamide class were conducted. […] In addition, Tarceva was included in these dose response studies. The dose response studies were done with the following standard procedure. First, the cells were counted and dispensed at 250 cells/well into 384-well microplates with compound. […] Finally, alamar blue reduction was measured and the data was loaded into ORIS, our data screening acquisition platform.
ASSAY_METRIC: IC50 (nM)
Give bare numbers, in nM.

SMILES_DATA | ASSAY_METRIC | SCALE_UNIT | ENDPOINT_VALUE
Cc1cccc(-n2ncc(I)c(I)c2=O)c1 | IC50 | nM | 3490
COc1nn(-c2cccc(C)c2)c(=O)c(Cl)c1Cl | IC50 | nM | 5230
O=c1c(Br)c(Br)cnn1-c1ccccc1 | IC50 | nM | 1300
Cc1cc(C)cc(-n2ncc(Cl)c(Cl)c2=O)c1 | IC50 | nM | 2930
Cc1ccc(-n2ncc(Cl)c(Cl)c2=O)cc1C | IC50 | nM | 4090

Could you report IC50 for every entry in the following list?
1. O=c1c(Cl)c(Cl)cnn1-c1cccc(C(F)(F)F)c1
2. Cc1cccc(NC(=O)c2ccc([N+](=O)[O-])o2)c1
3. O=c1c(Cl)c(Cl)cnn1-c1ccc(C(F)(F)F)cc1

Resp:
[1260, 1850, 4260]

Give IC50 for each of the items listed below.
1. O=c1c(Br)c(Br)cnn1-c1ccccn1
2. Cc1ccc(-n2ncc(Cl)c(Cl)c2=O)cc1
3. COc1cccc(-n2ncc(Cl)c(Cl)c2=O)c1
4. O=c1c(Cl)c(Cl)cnn1-c1ccc2c(c1)OCCO2
5. Cc1cccc(-n2ncc(Br)c(Br)c2=O)c1
6. COCCOc1cccc(-n2ncc(Br)c(Br)c2=O)c1

Resp:
1. 420
2. 2550
3. 1630
4. 1970
5. 1430
6. 890

Would you mind giving IC50 for every compound in the list below?
1. Cc1cccc(-n2ncc(Cl)c(Cl)c2=O)c1C
2. O=c1c(Br)c(Br)cnn1-c1cccc(C(F)(F)F)c1

Resp:
[3510, 2760]

----------
test system: HPL1D (human peripheral lung epithelial) cell line; assay: Cell proliferation / dose response (Alamar Blue), HPL1D; type: cell-based; settings: 48 h, read-out: IC50 HPL1D
ASSAY_METRIC: pIC50
Give bare numbers, as −log10 of the molar value.

SMILES_DATA | ASSAY_METRIC | ENDPOINT_VALUE
O=c1c(Cl)c(Cl)cnn1-c1ccccc1 | pIC50 | 6.42

Would you kindly look at the next entry?
Req: Would you mind telling me what pIC50 value was observed for `Cc1cccc(-n2ncc(Cl)c(Cl)c2=O)c1` ?
Resp: 6.55

----------
test system: H2030; assay: Non Small Cell Lung Cancer proliferation assay (Alamar Blue reduction), H2030; assay type: cell-based, human; conditions: Homo sapiens, NCI-H2030; primary screening; 10 μM compound in 1% DMSO (v/v); read-out: percentage inhibition H2030
ASSAY_METRIC: inhibition at 10 µM (%)
Answers are plain numbers, in %.

Example compounds with recorded inhibition at 10 µM:
COMPOUND | SCALE_UNIT | inhibition at 10 µM
O=c1c(Cl)c(Cl)cnn1-c1ccc(Cl)c(C(F)(F)F)c1 [compound 103719] | % | 94
CCc1c(C(=O)OC)nn(-c2ccc(C)cc2)c(=O)c1C#N [compound 193326] | % | -9
COc1cnn(-c2cccc(Cl)c2)c(=O)c1Cl [compound 104390] | % | -6
Cc1ccccc1-n1ncc(SCc2ccccc2)c(Cl)c1=O [compound 224765] | % | -15

For each entry beneath this line, provide reported inhibition at 10 µM.
1. O=C(COCCOc1cnn(-c2ccccc2)c(=O)c1Cl)c1ccccc1 [compound 199760]
2. O=C(COc1cnn(-c2ccccc2)c(=O)c1Cl)c1ccc(Br)cc1 [compound 176702]
3. Nc1ccc(Sc2cnn(-c3ccccc3)c(=O)c2Cl)cc1 [compound 181612]

Resp:
1. 21
2. -14
3. 11

Look at each compound and report its inhibition at 10 µM.
1. COc1ccc(Sc2cnn(-c3ccccc3)c(=O)c2Cl)cc1 [compound 181862]
2. Cc1c(Oc2ccccc2)nnn1-c1cnn(-c2ccccc2)c(=O)c1Br [compound 223337]

Resp:
1. 9
2. -14
